These entries and their values trace back to patent US20150328329A1.

// values below are reported Inhibition of JS-81 Binding (%)
Biological target: native CD81 on Raji cells (Homo sapiens, UniProt P60033)
Construct: endogenous in cells; host or cells: Raji (human B cell line)
Sequence (P60033 1-236): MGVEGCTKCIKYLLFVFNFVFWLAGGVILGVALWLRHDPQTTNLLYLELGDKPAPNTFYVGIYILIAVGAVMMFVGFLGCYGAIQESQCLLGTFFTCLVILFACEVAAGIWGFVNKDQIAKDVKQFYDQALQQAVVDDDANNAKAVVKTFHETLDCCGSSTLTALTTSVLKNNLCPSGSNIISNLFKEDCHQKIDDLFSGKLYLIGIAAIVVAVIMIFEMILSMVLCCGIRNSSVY
Test: Competition assay: inhibition of FITC-labeled JS-81 anti-CD81 antibody binding to native CD81 on live Raji cells (flow cytometry)
Format: cell-based
Details: 50 μM ligand
endpoint.name: Inhibition of JS-81 Binding (%)

smiles.repr | endpoint.name | unit.abbreviation | result.number
O=C(O)/C=C\C(=O)Nc1cccc2cccnc12 | Inhibition of JS-81 Binding (%) | % | 0
O=C(Cn1ccc(=O)[nH]c1=O)Nc1ccc(C(=O)O)c(O)c1 | Inhibition of JS-81 Binding (%) | % | 0
O=C(O)c1cc(O)ccc1/N=N/c1ccccc1 | Inhibition of JS-81 Binding (%) | % | 0
N=C(N)N/N=C/c1c(Cl)cccc1Cl | Inhibition of JS-81 Binding (%) | % | 0
COc1cc(-c2ccc(Nc3ccccc3C(=O)O)c(OC)c2)ccc1Nc1ccccc1C(=O)O | Inhibition of JS-81 Binding (%) | % | 0
O=C(O)/C(=C/c1ccccc1)c1ccccc1 | Inhibition of JS-81 Binding (%) | % | 0
O=C(O)c1cc2cc(OCc3ccccc3)ccc2[nH]1 | Inhibition of JS-81 Binding (%) | % | 0
Cc1ccc(-c2cc(C(=O)O)c3ccccc3n2)c(C)c1 | Inhibition of JS-81 Binding (%) | % | 0
NC(=O)NC(=O)c1nccnc1C(=O)O | Inhibition of JS-81 Binding (%) | % | 0
O=C(O)c1ccc(N2CCCCC2)cc1O | Inhibition of JS-81 Binding (%) | % | 0
CC(C)(C)c1ccc(NS(=O)(=O)c2ccc(N)cc2)cc1 | Inhibition of JS-81 Binding (%) | % | 0
CNC1(C(N)=O)CCNCC1 | Inhibition of JS-81 Binding (%) | % | 0
O=C(O)Cn1ccc2ccccc21 | Inhibition of JS-81 Binding (%) | % | 0
